Test system: T-47D breast ductal carcinoma
Assay: Relative colony forming efficiency (Example 17, Table 13)
Type: cell-based, human
Conditions: averages of 2-8 determinations
Description: Colony forming efficiency was determined using standard protocols. […] The test oligonucleotides were added to cell cultures in the presence of 2.5 μg of DOTMA/DOPE (Lipofectin; Life Technologies, Inc.) for four hours. The oligonucleotide was tested at 0.2 μM unless otherwise indicated. […] Surviving cells were visualized by methylene blue staining, and colonies were scored. In some experiments cell aliquots were removed from the culture and viability was determined using the trypan blue exclusion test. […]
Oligonucleotides are written 5' to 3', each unit as a sugar letter and its base; * is a phosphorothioate linkage, no mark a phosphodiester; rarer units and linkages stand in square brackets, end groups in braces. Plain capitals give the bases only. d = 2'-deoxy (DNA)
Assign Satisfied to entries whose Reduced relative colony forming efficiency, T-47D (% inhibition of colony forming ability) meets or exceeds 90%; assign Not satisfied to the rest.

substance	system	class-assignment
GGCTAAATCGCTCCACCAAG (chemistry not given here) [SEQ ID NO: 1, antisense oligonucleotide that hybridizes to the coding region of human ribonucleotide reductase R2 mRNA]	T-47D breast ductal carcinoma	Not satisfied
AAAAATCAGCCAAGTAAGGG (antisense dA*dA*dA*dA*dA*dT*dC*dA*dG*dC*dC*dA*dA*dG*dT*dA*dA*dG*dG*dG) [AS-II-1381-20]	T-47D breast ductal carcinoma	Satisfied
G*CC*TCCG*ACC*CTTC*CC*ATT*G (antisense dG*dCdC*dTdCdCdG*dAdCdC*dCdTdTdC*dCdC*dAdTdT*dG) [AS-II-13-20]	T-47D breast ductal carcinoma	Not satisfied
AGGACTGGTTGTGAGGTAGC (antisense dA*dG*dG*dA*dC*dT*dG*dG*dT*dT*dG*dT*dG*dA*dG*dG*dT*dA*dG*dC) [AS-II-1499-20]	T-47D breast ductal carcinoma	Satisfied
GCGAGCGGGACACGGAGGGA (antisense dG*dC*dG*dA*dG*dC*dG*dG*dG*dA*dC*dA*dC*dG*dG*dA*dG*dG*dG*dA) [AS-II-201-20]	T-47D breast ductal carcinoma	Satisfied
GCTATTATCGCCGCCGTGAG (antisense dG*dC*dT*dA*dT*dT*dA*dT*dC*dG*dC*dC*dG*dC*dC*dG*dT*dG*dA*dG) [AS-II-1773-20]	T-47D breast ductal carcinoma	Not satisfied
GGGAGAGCATAGTGGAGGCG (antisense dG*dG*dG*dA*dG*dA*dG*dC*dA*dT*dA*dG*dT*dG*dG*dA*dG*dG*dC*dG) [AS-II-185-20]	T-47D breast ductal carcinoma	Satisfied
GAGCAGCCAGGACAGGACGG (antisense dG*dA*dG*dC*dA*dG*dC*dC*dA*dG*dG*dA*dC*dA*dG*dG*dA*dC*dG*dG) [AS-II-151-20]	T-47D breast ductal carcinoma	Satisfied

* * *

test system: T-47D breast ductal carcinoma; assay: Relative colony forming efficiency (Example 17, Table 13); type: cell-based, human; conditions: averages of 2-8 determinations
Oligonucleotides are written 5' to 3', each unit as a sugar letter and its base; * is a phosphorothioate linkage, no mark a phosphodiester; rarer units and linkages stand in square brackets, end groups in braces. Plain capitals give the bases only. d = 2'-deoxy (DNA)
List of Reduced relative colony forming efficiency, T-47D (% inhibition of colony forming ability) values.
measured-attribute: Reduced relative colony forming efficiency, T-47D (% inhibition of colony forming ability) (%)

sequence-entry	value
GCACGGGCGACC (antisense dG*dC*dA*dC*dG*dG*dG*dC*dG*dA*dC*dC) [AS-II-127-12]	37.54
CCCAGGACACTACACAAGCC (antisense dC*dC*dC*dA*dG*dG*dA*dC*dA*dC*dT*dA*dC*dA*dC*dA*dA*dG*dC*dC) [AS-II-2026-20]	93.41
GTCTCTCCTCCGATGGTTTG [AS-II-1040-20]	64.76
TGCCTCCGACCCTTCCCA (antisense dT*dG*dC*dC*dT*dC*dC*dG*dA*dC*dC*dC*dT*dT*dC*dC*dC*dA) [AS-II-16-18]	7.13
CCTTGCCCTGAGAGATTCCT (antisense dC*dC*dT*dT*dG*dC*dC*dC*dT*dG*dA*dG*dA*dG*dA*dT*dT*dC*dC*dT) [AS-II-2083-20]	89.32
AAAACCTTGCTAAAACCCAG (antisense dA*dA*dA*dA*dC*dC*dT*dT*dG*dC*dT*dA*dA*dA*dA*dC*dC*dC*dA*dG) [AS-II-1197-20]	81.95
CGGAGGGAGAGCATAGTGGA (antisense dC*dG*dG*dA*dG*dG*dG*dA*dG*dA*dG*dC*dA*dT*dA*dG*dT*dG*dG*dA) [AS-II-189-20]	96.63
